- System: TK-10
- ASSAY: NCI tumour cell line growth inhibition, 48 h
Calls of active or inactive are those of the source. Cut-off read from the data, not from the text of the source: active = GI50 up to about 1.1 µM and inactive = higher.
PARAMETER_MEASURED: GI50

MOLECULE	GI50
CCc1cccc(C)c1NC(=O)CCc1n[nH]c(=S)o1	> 100 µM (inactive)
CCCNCCCCC(NC(C)=O)C(=O)NCc1ccccc1 (stereo not given)	> 100 µM (inactive)
Cc1ccc(S(=O)(=O)OCCN(CCOS(=O)(=O)c2ccc(C)cc2)c2ccc(C=O)cc2)cc1	36.3 µM (inactive)
CC(=O)C(CN1CCCCC1)C(c1ccccc1)c1c(O)c2ccccc2oc1=O (stereo not given)	> 100 µM (inactive)

query: Reported GI50 for CC(C)N1CCN(c2ccc(OCC3COC(Cn4cncn4)(c4ccc(Cl)cc4Cl)O3)cc2)CC1 (stereo not given) [TERCONAZOLE] : what is it?
result: 9.62 µM (inactive)

====

- System: SK-MEL-2
- ASSAY: NCI tumour cell line growth inhibition, 48 h
Activity calls are given as the source filed them. Rule as the data show it: active = GI50 up to about 1.1 µM and inactive = higher.
Recorded GI50 by entry

MOLECULE	TARGET_DESC	GI50
O=C(Nc1cccc2cnccc12)c1cc2c(cc1Cl)Sc1nccn1S2(=O)=O	SK-MEL-2	13.5 µM (inactive)

query: Need GI50, item COC(=O)C(Cc1ccccc1)NC(=O)Cn1ccnc1[N+](=O)[O-] (centres undefined)
result: > 100 µM (inactive)

====

- Tested on: HT-29
- ASSAY: NCI tumour cell line growth inhibition, 48 h
The source made the active and inactive calls. No stated cut-off is given here; in the data, active = GI50 up to about 1.1 µM and inactive = higher.
Return exactly one item of label 1 for active, label 0 for inactive

MOLECULE	ASSIGNED_CATEGORY
CCN(CCCl)c1cc(CN(C)C)cc(NC(=O)c2cc(C(=O)Nc3cc(CN(C)C)cc(N(CC)CCCl)c3)n(C)n2)c1	label 1
CCCC(CCN)(CCN)[N+](=O)[O-]	label 0
O=CN1CCN(C=S)CC1	label 0
COC(=O)Cc1c(/C=C/C(C)(C)n2cnc(CCN3C(=O)CCC3=O)c2)[nH]c2ccccc12	label 0
Cc1occ2c1C(=O)CC1C2[C@@H](O)CC2C(C)(C)CCC[C@]12C (stereo not given in full)	label 0

query: Hey, what did the test say about COC(=O)C(Cc1ccccc1)NC(=O)Cn1ccnc1[N+](=O)[O-] (stereo not given) ?
result: label 0

====

Read-out record for HCT-15: GI50
State the answer as a number, implicitly in µM.

COMPOUND	REPORTED_VALUE
Cc1ccc(S(=O)(=O)NC(CCC(=O)NNc2ccccc2)C(=O)NNc2ccccc2)cc1 (stereo unspecified)	15.4
O=[N+]([O-])C(=C/c1cccs1)/C(=C\c1cccs1)[N+](=O)[O-]	0.199

Turning now to a further record.
query: What is its GI50 for HCT-15? Entry: CSC1=NC(=O)CCN1C1OCC(OC(C)=O)C(OC(C)=O)C1OC(C)=O (stereo unspecified)
result: 18.5

====

- System: HCT-116
- ASSAY: NCI tumour cell line growth inhibition, 48 h
Activity calls are given as the source filed them. No stated cut-off is given here; in the data, active = GI50 up to about 1.1 µM and inactive = higher.
Respond with a class label; see T (active), F (inactive)

Check out these entries, answers already filled in.
COMPOUND	ASSIGNED_CATEGORY
CC1(C)N=c2c(ncn2CCCO)=C(C(N)=O)N1	F
c1ccc(NCCSc2nc3ccccc3s2)cc1	F
Nc1ccn(C2OC(COP(=O)(O)O)C(O)C2O)c(=O)n1 (centres undefined)	F
COc1ccc2c[n+](C)c3c4cc(OC)c(OC)cc4ccc3c2c1	F
O=[N+]([O-])/C(C(Cl)=C(Cl)Cl)=C(\Nc1ccccc1)n1nnc2ccccc21	F
CC(C)(C)NC(=O)/C(=C\Sc1ccccc1)c1ccccc1	F
O=[N+]([O-])C(=C1c2ccccc2-c2ccccc21)[N+](=O)[O-]	F
CCOC(=O)C12CCCC1(O)N(NC(=O)OC(C)(C)C)C(C)=C2C(=O)OC (centres undefined)	F

Please look at the following compound next.
query: What classification did CC(=O)c1c(-c2ccc(Cl)cc2)c(C#N)c(=S)n(C2OC(CO)C(O)C(O)C2O)c1C (centres undefined) end up with in this test?
result: F

====

- Tested on: K562
- ASSAY: NCI tumour cell line growth inhibition, 48 h
Activity calls are given as the source filed them. No stated cut-off is given here; in the data, active = GI50 up to about 1.1 µM and inactive = higher.
Classes to choose from: label 1 = active, label 0 = inactive

COMPOUND	ASSIGNED_CATEGORY
Cc1cc(O)nc(NN2C(Cl)C(=O)C2c2cccc(Cl)c2)n1 (stereo not drawn)	label 0
C[n+]1ccc(Nc2ccc(NC(=O)c3ccc(Nc4cc[n+](C)c5ccc([N+](=O)[O-])cc45)cc3[N+](=O)[O-])cc2)cc1	label 0

Below: the item to evaluate.
query: Which outcome did this test record for the compound CC1=NN(C(=O)CC(=O)Nc2ccc(C)cc2)C(=O)C1/N=N\c1ccc(S(=O)(=O)c2ccc(/N=N/C3C(=O)N(C(=O)CC(=O)Nc4ccc(C)cc4)N=C3C)cc2)cc1 (stereo not drawn) ?
result: label 0

====

The compounds listed here are annotated with their GI50.
- Tested on: CCRF-CEM
- ASSAY: NCI tumour cell line growth inhibition, 48 h
The source made the active and inactive calls. No stated cut-off is given here; in the data, active = GI50 up to about 1.1 µM and inactive = higher.

Solved cases below.
COMPOUND	TARGET_DESC	GI50
CCCCNN	CCRF-CEM	43 µM (inactive)
COc1ccc(C(=O)/C=C/c2ccc(O)c(O)c2)c(OC)c1	CCRF-CEM	0.508 µM (active)
O=c1ccc2ccc(CBr)cc2o1	CCRF-CEM	1.78 µM (inactive)

query: Which GI50 value belongs to Cc1ccc(S(=O)(=O)OCCN(CCOS(=O)(=O)c2ccc(C)cc2)c2ccc(C=O)cc2)cc1 ?
result: 34.8 µM (inactive)

query: Request the reported GI50 associated with COc1cc2c(cc1OC)CCc1cc(OC)c(OC)cc1CC2
result: > 100 µM (inactive)

query: Looking for the measured GI50 of CCOC(=O)COc1ccc2c(C)cc(=O)oc2c1 , can you help?
result: > 100 µM (inactive)

====

- System: 786-0
- ASSAY: NCI tumour cell line growth inhibition, 48 h
Activity calls are given as the source filed them. No stated cut-off is given here; in the data, active = GI50 up to about 1.1 µM and inactive = higher.
Hi there, use one of these labels in your reply, thanks! active, inactive

query: Recorded test outcome, item COc1ccc2c[n+](C)c3c4cc(OC)c(OC)cc4ccc3c2c1
result: inactive

query: For CCc1cccc(C)c1NC(=O)CCc1n[nH]c(=S)o1 , what call appears in the results of this test?
result: inactive

query: Look up the recorded call for Nc1nncc2c1c(Br)cn2C1OC(CO)C(O)C1O (configuration not stated) in this test.
result: inactive

====

- Tested on: HOP-92
- ASSAY: NCI tumour cell line growth inhibition, 48 h
Activity calls are given as the source filed them. No stated cut-off is given here; in the data, active = GI50 up to about 1.1 µM and inactive = higher.
The categories you may choose from are active, inactive

The following compounds have reported results that may help.
COMPOUND	TARGET_DESC	ASSIGNED_CATEGORY
Nc1nc2c(c(=O)[n-]1)[n+](CCO)cn2C1OC(CO)C(O)C1O (centres undefined)	HOP-92	inactive
C=C(C(=C)P(=S)(C(C)C)C(C)C)P(=S)(C(C)C)C(C)C	HOP-92	inactive
N#CC(C(=O)C(=O)C(C#N)c1ccc(Br)cc1)c1ccc(Br)cc1 (centres undefined)	HOP-92	inactive
C1=N\CCN2CCN(CC/N=C\c3ccccc3OCc3cccc(n3)COc3ccccc3/1)CC2	HOP-92	inactive
N#CCc1ccc(C(C#N)/C(CCCC(=O)Nc2cccc([N+](=O)[O-])c2)=N\NC(=O)NN)cc1 (centres undefined)	HOP-92	inactive
c1ccc2c(Cc3[nH]c4ccccc4c3Cc3c[nH]c4ccccc34)c[nH]c2c1	HOP-92	inactive

query: Lab log entry: CC(C)(C)OC(=O)C1=C(N)N(Cc2ccccc2)C2(C)C=CC(=O)C=C12 (centres undefined) — outcome as called in the assay?
result: inactive

query: For N#Cc1ccccc1OCCOc1ccccc1C#N , what call appears in the results of this test?
result: inactive

====

- System: SNB-75
- ASSAY: NCI tumour cell line growth inhibition, 48 h
The source made the active and inactive calls. Cut-off read from the data, not from the text of the source: active = GI50 up to about 1.1 µM and inactive = higher.
PARAMETER_MEASURED: GI50

Example results:
MOLECULE	REPORTED_VALUE
Nc1nc(=O)n(C2CC(O)C(CO)O2)c2nc(-c3ccc(-c4ccccc4)cc3)cnc12 (stereo unspecified)	23 µM (inactive)
CCc1nc(N)nc(N)c1-c1ccc(NCCc2ccccc2)c([N+](=O)[O-])c1	3.56 µM (inactive)
COC(OC)[C@@H]1OC[C@H](n2cnc3c(N)ncnc32)[C@H]1O	> 100 µM (inactive)
Clc1ccc(/C=N/c2ccc3c(c2)Cc2ccccc2-3)c(Cl)c1	> 100 µM (inactive)
CCOC(=O)C(NC(=O)CC)(N1CCN(c2cc3c(cc2F)c(=O)c(C(=O)O)cn3C2CC2)CC1)C(F)(F)F (stereo unspecified)	> 100 µM (inactive)

// next item, GI50 requested
query: Give GI50 (SNB-75) of the following molecule: O=C(CCCCCCCCC(=O)OCC1OC(n2cnc3c(=O)[nH]cnc32)C(O)C1O)OCC1OC(n2cnc3c(=O)[nH]cnc32)C(O)C1O (stereo unspecified)
result: > 100 µM (inactive)
